All values here come from patent US6994987B1.

System: synthetic peptide consisting of the 28 amino acids (SEQ ID NO: 28)
measurement notes: Two step reaction of proteinase and fraction 4 on the 28 amino acid synthetic peptide
Type: biochemical
condition parameters: proteinase 0.1 μg/ml on 28-mer 10 μg/ml, pH 6.1, 37° C. 5 hours, heat inactivation, then fraction 4; HPLC
measurement kind: Production of the tripeptides Ile-Pro-Pro and Val-Pro-Pro

molecule	observed measurement
Subtilisin Carlsberg: proteinase, Bacillus licheniformis, Sigma Chemical Co. (protein, UniProt P00780 106-379, looked up) Subtilisin Carlsberg: AQTVPYGIPLIKADKVQAQGFKGANVKVAVLDTGIQASHPDLNVVGGASFVAGEAYNTDGNGHGTHVAGTVAALDNTTGVLGVAPSVSLYAVKVLNSSGSGSYSGIVSGIEWATTNGMDVINMSLGGASGSTAMKQAVDNAYAKGVVVVAAAGNSGSSGNTNTIGYPAKYDSVIAVGAVDSNSNRASFSSVGAELEVMAPGAGVYSTYPTNTYATLNGTSMASPHVAGAAALILSKHPNLSASQVRNRLSSTATYLGSSFYYGKGLINVEAAAQ	No
Trypsin (Type I): proteinase, bovine pancreas, Sigma Chemical Co. (protein, UniProt P00760 24-246, looked up) Serine protease 1: IVGGYTCGANTVPYQVSLNSGYHFCGGSLINSQWVVSAAHCYKSGIQVRLGEDNINVVEGNEQFISASKSIVHPSYNSNTLNNDIMLIKLKSAASLNSRVASISLPTSCASAGTQCLISGWGNTKSSGTSYPDVLKCLKAPILSDSSCKSAYPGQITSNMFCAGYLEGGKDSCQGDSGGPVVCSGKLQGIVSWGSGCAQKNKPGVYTKVCNYVSWIKQTIASN	No
Papain: proteinase, Papaya Latex, Sigma Chemical Co. (protein, UniProt P00784 134-345, looked up) Papain: IPEYVDWRQKGAVTPVKNQGSCGSCWAFSAVVTIEGIIKIRTGNLNEYSEQELLDCDRRSYGCNGGYPWSALQLVAQYGIHYRNTYPYEGVQRYCRSREKGPYAAKTDGVRQVQPYNEGALLYSIANQPVSVVLEAAGKDFQLYRGGIFVGPCGNKVDHAVAAVGYGPNYILIKNSWGTGWGENGYIRIKRGTGNSYGVCGLYTSSFYPVKN	Yes
